biological target: GDP-bound KRAS wild-type protein (Homo sapiens, UniProt P01116); experiment: Binding to KRAS by surface plasmon resonance (SPR), dissociation constant KD; settings: Single Cycle Kinetics, 1:1 binding model
Sequence (P01116 1-188 isoform P01116-2): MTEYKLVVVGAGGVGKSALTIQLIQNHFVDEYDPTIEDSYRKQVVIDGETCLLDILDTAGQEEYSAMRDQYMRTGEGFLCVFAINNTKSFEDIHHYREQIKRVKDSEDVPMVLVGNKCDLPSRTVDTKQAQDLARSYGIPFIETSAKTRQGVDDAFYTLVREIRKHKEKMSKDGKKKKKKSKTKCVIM
recorded metric: pKd
// pKd here means minus log10 of the molar concentration (mol/L)

Reported pKd for `CC[C@@H]1C[C@H]2C(=O)NC3(CCC3)C(=O)N(C)[C@@H](C3CCCC3)C(=O)N(C)[C@H](C(=O)N(C)C)CC(=O)N(C)[C@@H](CC(C)C)C(=O)N[C@@H]([C@@H](C)CC)C(=O)N(C)CC(=O)N(C)[C@H]3C/C=C\CCN(C3=O)[C@@H](Cc3ccc(C)cc3)C(=O)N(C)CC(=O)N[C@@H](CCc3cc(F)c(C(F)(F)F)c(F)c3)C(=O)N2C1` : what is it?
9.85

Reported pKd for `CCCC[C@H]1C(=O)N[C@@H]([C@@H](C)CC)C(=O)N(C)CC(=O)N(C)[C@H]2C/C=C\CCN(C2=O)[C@@H](Cc2ccc(C(F)(F)F)cc2)C(=O)N(C)CC(=O)N[C@@H](CCc2cc(F)c(C(F)(F)F)c(F)c2)C(=O)N2C[C@H](OCC)C[C@H]2C(=O)NC2(CCC2)C(=O)N(C)[C@@H](C2CCCC2)C(=O)N(C)[C@H](C(=O)N(CC)CC)CC(=O)N1C` : what is it?
9.85

Reported pKd for `CC[C@H](C)[C@@H]1NC(=O)[C@H](CC(C)C)N(C)C(=O)C[C@@H](C(=O)N2CCOCC2)N(C)C(=O)[C@H](C2CCCC2)N(C)C(=O)C2(CCC2)NC(=O)[C@@H]2C[C@@H](OCC(C)C)CN2C(=O)[C@H](CCc2cc(F)c(C(F)(F)F)c(F)c2)NC(=O)CN(C)C(=O)[C@H](Cc2ccc(C(F)(F)F)cc2)N2CCCC[C@@H](C2=O)N(C)C(=O)CN(C)C1=O` : what is it?
10.49

* * *

Provide the reported pIC50 of each item.
system: human lung cancer strain NCI-H441; type: cell-based
// pIC50 here means minus log10 of the molar concentration (mol/L)

Reported pIC50 for `CCO[C@@H]1C[C@H]2C(=O)NC3(CC(C)(C)C3)C(=O)N(C)[C@@H](C3CCCC3)C(=O)N(C)[C@H](C(=O)N(C)CC)CC(=O)N(C)[C@@H](CC(F)F)C(=O)N[C@@H]([C@@H](C)CC)C(=O)N(C)CC(=O)N(C)[C@H]3C/C=C\CCN(C3=O)[C@@H](Cc3ccc(C(F)(F)F)cc3)C(=O)N(C)CC(=O)N[C@@H](CCc3cc(F)c(C(F)(F)F)c(F)c3)C(=O)N2C1` : what is it?
8.80

Reported pIC50 for `CCO[C@@H]1C[C@H]2C(=O)NC3(CC(C)(C)C3)C(=O)N(C)[C@@H](C3CCCC3)C(=O)N(C)[C@H](C(=O)N(C)CC)CC(=O)N(C)[C@@H](C(C)C)C(=O)N[C@@H]([C@@H](C)CC)C(=O)N(C)CC(=O)N(C)[C@H]3C/C=C\CCN(C3=O)[C@@H](Cc3ccc(C(F)(F)F)cc3)C(=O)N(C)CC(=O)N[C@@H](CCc3ccc(C(F)(F)F)c(OC)c3)C(=O)N2C1` : what is it?
7.69

Reported pIC50 for `CC[C@H](C)[C@@H]1NC(=O)[C@H](CC)N(C)C(=O)C[C@@H](C(=O)N(C)C)N(C)C(=O)[C@H](C2CCCC2)N(C)C(=O)C2(CCC2)N(C)C(=O)[C@@H]2C[C@@H](C)CN2C(=O)[C@H](CCc2cc(F)c(C(F)(F)F)c(F)c2)NC(=O)CN(C)C(=O)[C@H](Cc2ccc(C)cc2)N2CC/C=C\C[C@@H](C2=O)N(C)C(=O)CN(C)C1=O` : what is it?
8.05

* * *

Provide the reported pKd of each item.
target: GDP-bound KRAS wild-type protein (Homo sapiens, UniProt P01116); assay: Binding to KRAS by surface plasmon resonance (SPR), dissociation constant KD; conditions: Single Cycle Kinetics, 1:1 binding model
// pKd here means minus log10 of the molar concentration (mol/L)

Under GDP-bound KRAS wild-type protein (Homo sapiens, UniProt P01116): pKd value of `CCO[C@@H]1C[C@H]2C(=O)NC3(CCC3)C(=O)N(C)[C@@H](C3CCCC3)C(=O)N(C)[C@H](C(=O)N(C)C)CC(=O)N(C)[C@@H](CC)C(=O)N[C@@H]([C@@H](C)CC)C(=O)N(C)CC(=O)N(C)[C@H]3C/C=C\CCN(C3=O)[C@@H](Cc3ccc(C(F)(F)F)cc3)C(=O)N(C)CC(=O)N[C@@H](CCc3ccc(Cl)c(Cl)c3)C(=O)N2C1` ?
9.74

Under GDP-bound KRAS wild-type protein (Homo sapiens, UniProt P01116): pKd value of `CCO[C@@H]1C[C@H]2C(=O)NC3(CCCC3)C(=O)N(C)[C@@H](C3CCCC3)C(=O)N(C)[C@H](C(=O)N3CCOCC3)CC(=O)N(C)[C@@H](CC)C(=O)N[C@@H]([C@@H](C)CC)C(=O)N(C)CC(=O)N(C)[C@H]3C[C@@H](C)[C@@H](C)CN(C3=O)[C@@H](Cc3ccc(C(F)(F)F)cc3)C(=O)N(C)CC(=O)N[C@@H](CCc3cc(F)c(C(F)(F)F)c(F)c3)C(=O)N2C1` ?
10.00

Under GDP-bound KRAS wild-type protein (Homo sapiens, UniProt P01116): pKd value of `C#CC[C@H]1C(=O)N[C@@H]([C@@H](C)CC)C(=O)N(C)CC(=O)N(C)[C@H]2C/C=C\CCN(C2=O)[C@@H](Cc2ccc(C(F)(F)F)cc2)C(=O)N(C)CC(=O)N[C@@H](CCc2ccc(C(F)(F)F)c(OC)c2)C(=O)N2C[C@@H](C)C[C@H]2C(=O)NC2(CCC2)C(=O)N(C)[C@@H](C2CCCC2)C(=O)N(C)[C@H](C(=O)N(C)CCC)CC(=O)N1C` ?
10.05

* * *

test system: human lung cancer strain NCI-H441; assay: NCI-H441 cell proliferation inhibitory activity (CellTiter-Glo, 4 days); type: cell-based; settings: NCI-H441 cells, 4 days, read-out: NCl-H441 IC50
recorded metric: pIC50
// pIC50 here means minus log10 of the molar concentration (mol/L)

Reported pIC50 for `CCO[C@@H]1C[C@H]2C(=O)OC3(CCC3)C(=O)N(C)[C@@H](C3CCCC3)C(=O)N(C)[C@H](C(=O)N(C)C)CC(=O)N(C)[C@@H]([C@@H](C)OC)C(=O)N[C@@H]([C@@H](C)CC)C(=O)N(C3CC3)CC(=O)N(C)[C@H]3C/C=C\CCN(C3=O)[C@@H](Cc3ccc(C)cc3)C(=O)N(C)CC(=O)N[C@@H](CCc3ccc(C(F)(F)F)c(OC)c3)C(=O)N2C1` : what is it?
8.33

Reported pIC50 for `CCCC[C@H]1C(=O)N[C@@H]([C@@H](C)CC)C(=O)N(C2CC2)CC(=O)N(C)[C@H]2C/C=C\CCN(C2=O)[C@@H](Cc2ccc(C)cc2)C(=O)N(C)CC(=O)N[C@@H](CCc2ccc(C(F)(F)F)c(OC)c2)C(=O)N2C[C@H](OCC)C[C@H]2C(=O)OC2(CCC2)C(=O)N(C)[C@@H](C2CCCC2)C(=O)N(C)[C@H](C(=O)N(C)C)CC(=O)N1C` : what is it?
7.74

* * *

Provide the reported IC50 of each item.
test system: human ovarian cancer strain OV7; assay type: cell-based
Form entry: value (µM) — number only.

Reported IC50 for CCC[C@H]1C(=O)N[C@@H]([C@@H](C)CC)C(=O)N(C2CC2)CC(=O)N(C)[C@H]2C/C=C\CCN(C2=O)[C@@H](Cc2ccc(C(F)(F)F)cc2)C(=O)N(C)CC(=O)N[C@@H](CCc2cc(F)c(C(F)(F)F)c(F)c2)C(=O)N2C[C@H](OCC)C[C@H]2C(=O)NC2(CC(C)(C)C2)C(=O)N(C)[C@@H](CC(C)(C)C)C(=O)N(C)[C@H](C(=O)N(C)C)CC(=O)N1C [PP2742] : what is it?
0.0204

Reported IC50 for C#CC[C@H]1C(=O)N[C@@H]([C@@H](C)CC)C(=O)N2CCC[C@H]2C(=O)N(C)[C@H]2C/C=C\CCN(C2=O)[C@@H](Cc2ccc(C)cc2)C(=O)N(C)CC(=O)N[C@@H](CCc2ccc(C(F)(F)F)c(OC)c2)C(=O)N2C[C@H](OCC)C[C@H]2C(=O)N(C)C2(CCC2)C(=O)N(C)[C@@H](C2CCCC2)C(=O)N(C)[C@H](C(=O)N(C)C)CC(=O)N1C [PP3255] : what is it?
0.0071

Reported IC50 for CCO[C@@H]1C[C@H]2C(=O)NC3(CC(C)(C)C3)C(=O)N(C)[C@@H](C3CCCC3)C(=O)N(C)[C@H](C(=O)N(C)C)CC(=O)N(C)[C@@H]([C@@H](C)OC)C(=O)N[C@@H]([C@@H](C)CC)C(=O)N(C)CC(=O)N(C)[C@H]3C/C=C\CCN(C3=O)[C@@H](Cc3ccc(C(F)(F)F)cc3)C(=O)N(C)CC(=O)N[C@@H](CCc3ccc(C(F)(F)F)c(Cl)c3)C(=O)N2C1 [PP3198] : what is it?
0.0072

Reported IC50 for CCO[C@@H]1C[C@H]2C(=O)NC3(CCCC3)C(=O)N(C)[C@@H](C3CCCC3)C(=O)N(C)[C@H](C(=O)N(C)C)CC(=O)N(C)[C@@H](CC(C)C)C(=O)N[C@@H]([C@@H](C)CC)C(=O)N(C)CC(=O)N(C)[C@H]3C/C(F)=C\CCN(C3=O)[C@@H](Cc3ccc(C(F)(F)F)cc3)C(=O)N(C)CC(=O)N[C@@H](CCc3cc(F)c(C(F)(F)F)c(F)c3)C(=O)N2C1 [PP3510] : what is it?
0.0236

Reported IC50 for CCO[C@@H]1C[C@H]2C(=O)OC3(CCC3)C(=O)N(C)[C@@H](C3CCCC3)C(=O)N(C)[C@H](C(=O)N(C)C)CC(=O)N(C)[C@@H]([C@@H](C)OC)C(=O)N[C@@H]([C@@H](C)CC)C(=O)N3CCC[C@H]3C(=O)N(C)[C@H]3C/C=C\CCN(C3=O)[C@@H](Cc3ccc(C(F)(F)F)cc3)C(=O)N(C)CC(=O)N[C@@H](CCc3ccc(C(F)(F)F)c(OC)c3)C(=O)N2C1 [PP3374] : what is it?
0.0159

Reported IC50 for CCC[C@H]1C(=O)N[C@@H]([C@@H](C)CC)C(=O)N(C)CC(=O)N(C)[C@H]2C/C=C\CCN(C2=O)[C@@H](Cc2ccc(C(F)(F)F)cc2)C(=O)N(C)CC(=O)N[C@@H](CCc2ccc(Cl)c(Cl)c2)C(=O)N2C[C@H](OCC)C[C@H]2C(=O)NC2(CC(C)(C)C2)C(=O)N(C)[C@@H](C(CC)CC)C(=O)N(C)[C@H](C(=O)N(C)C)CC(=O)N1C [PP2175] : what is it?
0.0802

Reported IC50 for CCO[C@@H]1C[C@H]2C(=O)NC3(CCCC3)C(=O)N(C)[C@@H](C3CCCC3)C(=O)N(C)[C@H](C(=O)N(C)C)CC(=O)N(C)[C@@H]([C@@H](C)OC)C(=O)N[C@@H]([C@@H](C)CC)C(=O)N(C)CC(=O)N(C)[C@H]3C/C=C\CCN(C3=O)[C@@H](Cc3ccc(C(F)(F)F)cc3)C(=O)N(C)CC(=O)N[C@@H](CCc3cc(F)c(C(F)(F)F)c(F)c3)C(=O)N2C1 [PP3475] : what is it?
0.0132
